test: S. cerevisiae growth inhibition in restrictive medium, OD615, pilot screen, restrictive growth control, yeast lifespan reduction project (AID 706); conditions: OD615, 48 h, at 10 µM, active compounds read high;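 note: modified DeaD lifespan yeast strain shifted to restrictive glucose medium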
The source made the active and inactive calls.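 Rule for the calls: active = growth inhibition above a set limit, 3 SD over mean compound inhibition, in both replicates (cut at about 43% in these data); inconclusive = above the limit in only one replicate; inactive = at or below the limit in both replicates.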
measure: growth inhibition

>>> data_value("CC(C)N(Cc1nc2ccccc2[nH]1)C(C)C")
"4.54% (inactive)"

Query string: Return reported growth inhibition; argument: CCN(CC)C(=O)c1ccc(CS(=O)(=O)c2ccc(OC)cc2)o1
Result string: -7.93% (inactive)

Query string: Also Cc1ccc(C)c2[nH]c(=O)c(CCNC(=O)CC(C)(C)C)cc12 , if possible.
Result string: -11.6% (inactive)
